# assay-context: 333.15 K; 101.33 kPa; Liquid; Vibrating tube method
Numbers after ± are expanded uncertainties.
Hi there, I'd appreciate the recorded mass density for every entry that follows.
Please state the number and follow it with the unit.

If you can, please state the reported mass density value of CC(C)COC(=O)[C@@H]1CCC[NH2+]1.CCCCCCCCCCCCOS(=O)(=O)[O-] [(S)-2-(isobutoxycarbonyl)pyrrolidinium dodecyl sulfate] .
1010.85 ± 5.5 kg/m3

Subsequent entry: "CC(C)OC(=O)CC[C@H]([NH3+])C(=O)OC(C)C.CCCCCCCCCCCCOS(=O)(=O)[O-]"
1023.79 ± 5.7 kg/m3

Can you check "CC(C)COC(=O)CC[C@H]([NH3+])C(=O)OCC(C)C.CCCCCCCCCCCCOS(=O)(=O)[O-]" next?
1007.13 ± 5.5 kg/m3

And CC(C)OC(=O)C[NH3+].CCCCCCCCCCCCOS(=O)(=O)[O-] [2-isopropoxy-2-oxoethan-1-aminium dodecyl sulfate] ?
1003.63 ± 5.4 kg/m3

Cool, now CC(C)OC(=O)[C@@H]1CCC[NH2+]1.CCCCCCCCCCCCOS(=O)(=O)[O-] [(S)-2-(isopropoxycarbonyl)pyrrolidin-1-ium dodecyl sulfate]
1021.7 ± 5.6 kg/m3

Cool, now "CC(C)OC(=O)[C@@H]([NH3+])C(C)C.CCCCCCCCCCCCOS(=O)(=O)[O-]"
1000.88 ± 5.4 kg/m3

Follow-up entry: CC(C)COC(=O)[C@H](C)[NH3+].CCCCCCCCCCCCOS(=O)(=O)[O-] [(S)-1-isobutoxy-1-oxopropan-2-aminium dodecyl sulfate]
1015.6 ± 5.6 kg/m3

CC(C)COC(=O)C[NH3+].CCCCCCCCCCCCOS(=O)(=O)[O-] [2-isobutoxy-2-oxoethan-1-aminium dodecyl sulfate] , same question.
991.89 ± 5.3 kg/m3

* * *

Task for the reader: assign each of the following molecules its reported speed of sound.
# assay-context: 303.15 K; 101.33 kPa; Liquid; Sing-around technique in a fixed-path interferometer
Express it in m/s; write the number only.

I'd like to know its speed of sound. The molecule in question is CC(C)OC(=O)[C@@H]1CCC[NH2+]1.CCCCCCCCCCCCOS(=O)(=O)[O-] [(S)-2-(isopropoxycarbonyl)pyrrolidin-1-ium dodecyl sulfate]
1402.4

Now the same for "CC(C)OC(=O)[C@@H]([NH3+])C(C)C.CCCCCCCCCCCCOS(=O)(=O)[O-]"
1382.9

Quick one: "CC(C)OC(=O)CC[C@H]([NH3+])C(=O)OC(C)C.CCCCCCCCCCCCOS(=O)(=O)[O-]"
1367.6

Here is the next molecule: CC(C)COC(=O)[C@H](C)[NH3+].CCCCCCCCCCCCOS(=O)(=O)[O-] [(S)-1-isobutoxy-1-oxopropan-2-aminium dodecyl sulfate]
1381.6

// query: CC(C)COC(=O)[C@@H](N)C(C)C.CCCCCCCCCCCCOS(=O)(=O)O [isobutyl L-valinate dodecyl sulfate]
1394.6

Try this molecule too: CC(C)OC(=O)C[NH3+].CCCCCCCCCCCCOS(=O)(=O)[O-] [2-isopropoxy-2-oxoethan-1-aminium dodecyl sulfate]
1373.4

Entry CC(C)COC(=O)[C@@H]1CCC[NH2+]1.CCCCCCCCCCCCOS(=O)(=O)[O-] [(S)-2-(isobutoxycarbonyl)pyrrolidinium dodecyl sulfate] please
1413

Try CC(C)COC(=O)C[NH3+].CCCCCCCCCCCCOS(=O)(=O)[O-] [2-isobutoxy-2-oxoethan-1-aminium dodecyl sulfate] next.
1372.1

* * *

# experiment: refractive index (Na D-line) (dimensionless)
# assay-context: 338.15 K; 101.33 kPa; Liquid; Standard Abbe refractometry
Record form. Attribute: refractive index. Fill in for each entry.
Keep it simple and answer with nothing but the number.

Need refractive index of CC(C)COC(=O)C[NH3+].CCCCCCCCCCCCOS(=O)(=O)[O-] [2-isobutoxy-2-oxoethan-1-aminium dodecyl sulfate] , thanks.
1.4397

What do we get for "CC(C)COC(=O)CC[C@H]([NH3+])C(=O)OCC(C)C.CCCCCCCCCCCCOS(=O)(=O)[O-]" ?
1.4414

Can you check CC(C)COC(=O)[C@@H]1CCC[NH2+]1.CCCCCCCCCCCCOS(=O)(=O)[O-] [(S)-2-(isobutoxycarbonyl)pyrrolidinium dodecyl sulfate] next?
1.4401

And then CC(C)OC(=O)[C@@H]1CCC[NH2+]1.CCCCCCCCCCCCOS(=O)(=O)[O-] [(S)-2-(isopropoxycarbonyl)pyrrolidin-1-ium dodecyl sulfate] , what is it?
1.4414

Next entry: CC(C)OC(=O)C[NH3+].CCCCCCCCCCCCOS(=O)(=O)[O-] [2-isopropoxy-2-oxoethan-1-aminium dodecyl sulfate]
1.4441

Follow-up entry: CC(C)COC(=O)[C@@H](N)C(C)C.CCCCCCCCCCCCOS(=O)(=O)O [isobutyl L-valinate dodecyl sulfate]
1.4406

Request: "CC(C)OC(=O)[C@@H]([NH3+])C(C)C.CCCCCCCCCCCCOS(=O)(=O)[O-]"
1.4403

Subsequent entry: "CC(C)OC(=O)CC[C@H]([NH3+])C(=O)OC(C)C.CCCCCCCCCCCCOS(=O)(=O)[O-]"
1.441

Same again, this time with CC(C)COC(=O)[C@H](C)[NH3+].CCCCCCCCCCCCOS(=O)(=O)[O-] [(S)-1-isobutoxy-1-oxopropan-2-aminium dodecyl sulfate]
1.4354

* * *

# assay-context: 328.15 K; 101.33 kPa; Liquid; Vibrating tube method
Exercise: for every item that follows, state its recorded mass density.
Value expressed in kg/m3; do not type the unit.

So what's the measured mass density for this one? "CC(C)COC(=O)CC[C@H]([NH3+])C(=O)OCC(C)C.CCCCCCCCCCCCOS(=O)(=O)[O-]"
1010.78

Please do the same for CC(C)COC(=O)C[NH3+].CCCCCCCCCCCCOS(=O)(=O)[O-] [2-isobutoxy-2-oxoethan-1-aminium dodecyl sulfate] as well.
995.15

Entry to check: CC(C)OC(=O)C[NH3+].CCCCCCCCCCCCOS(=O)(=O)[O-] [2-isopropoxy-2-oxoethan-1-aminium dodecyl sulfate]
1007.14

Ok, now "CC(C)OC(=O)CC[C@H]([NH3+])C(=O)OC(C)C.CCCCCCCCCCCCOS(=O)(=O)[O-]"
1027.46

Now give it for CC(C)COC(=O)[C@@H]1CCC[NH2+]1.CCCCCCCCCCCCOS(=O)(=O)[O-] [(S)-2-(isobutoxycarbonyl)pyrrolidinium dodecyl sulfate] too.
1014.21

Entry to check: "CC(C)OC(=O)[C@@H]([NH3+])C(C)C.CCCCCCCCCCCCOS(=O)(=O)[O-]"
1004.37

Same thing, different compound: CC(C)COC(=O)[C@H](C)[NH3+].CCCCCCCCCCCCOS(=O)(=O)[O-] [(S)-1-isobutoxy-1-oxopropan-2-aminium dodecyl sulfate]
1019.08

What would you report for CC(C)OC(=O)[C@@H]1CCC[NH2+]1.CCCCCCCCCCCCOS(=O)(=O)[O-] [(S)-2-(isopropoxycarbonyl)pyrrolidin-1-ium dodecyl sulfate] ?
1025.22

* * *

# assay-context: 293.15 K; 101.33 kPa; Liquid; Sing-around technique in a fixed-path interferometer
Field: speed of sound. Provide a value for each of the molecules that follow.
API: value field is a number in m/s; no unit string.

Name the reported speed of sound value associated with the molecule CC(C)OC(=O)[C@@H]1CCC[NH2+]1.CCCCCCCCCCCCOS(=O)(=O)[O-] [(S)-2-(isopropoxycarbonyl)pyrrolidin-1-ium dodecyl sulfate]
1436.8

Another molecule to check: CC(C)COC(=O)[C@H](C)[NH3+].CCCCCCCCCCCCOS(=O)(=O)[O-] [(S)-1-isobutoxy-1-oxopropan-2-aminium dodecyl sulfate]
1423.6

Same for "CC(C)OC(=O)CC[C@H]([NH3+])C(=O)OC(C)C.CCCCCCCCCCCCOS(=O)(=O)[O-]"
1412.8

Now this one: CC(C)COC(=O)[C@@H](N)C(C)C.CCCCCCCCCCCCOS(=O)(=O)O [isobutyl L-valinate dodecyl sulfate]
1421.3

And the next one, CC(C)COC(=O)[C@@H]1CCC[NH2+]1.CCCCCCCCCCCCOS(=O)(=O)[O-] [(S)-2-(isobutoxycarbonyl)pyrrolidinium dodecyl sulfate] ?
1445.2

Again, but for "CC(C)OC(=O)[C@@H]([NH3+])C(C)C.CCCCCCCCCCCCOS(=O)(=O)[O-]"
1418.5

* * *

# experiment: refractive index (Na D-line) (dimensionless)
# assay-context: 343.15 K; 101.33 kPa; Liquid; Standard Abbe refractometry
Numbers after ± are expanded uncertainties.
reported-property: refractive index

Reported refractive index for CC(C)COC(=O)[C@@H](N)C(C)C.CCCCCCCCCCCCOS(=O)(=O)O [isobutyl L-valinate dodecyl sulfate] : what is it?
1.439 ± 0.0011

What do we get for CC(C)COC(=O)C[NH3+].CCCCCCCCCCCCOS(=O)(=O)[O-] [2-isobutoxy-2-oxoethan-1-aminium dodecyl sulfate] ?
1.4365 ± 0.0011

And "CC(C)OC(=O)[C@@H]([NH3+])C(C)C.CCCCCCCCCCCCOS(=O)(=O)[O-]" ?
1.4388 ± 0.0011

Same for CC(C)OC(=O)C[NH3+].CCCCCCCCCCCCOS(=O)(=O)[O-] [2-isopropoxy-2-oxoethan-1-aminium dodecyl sulfate]
1.4414 ± 0.0011

Check CC(C)OC(=O)[C@@H]1CCC[NH2+]1.CCCCCCCCCCCCOS(=O)(=O)[O-] [(S)-2-(isopropoxycarbonyl)pyrrolidin-1-ium dodecyl sulfate] too.
1.4398 ± 0.0011

Also check CC(C)COC(=O)[C@@H]1CCC[NH2+]1.CCCCCCCCCCCCOS(=O)(=O)[O-] [(S)-2-(isobutoxycarbonyl)pyrrolidinium dodecyl sulfate]
1.4378 ± 0.0011

// next record CC(C)COC(=O)[C@H](C)[NH3+].CCCCCCCCCCCCOS(=O)(=O)[O-] [(S)-1-isobutoxy-1-oxopropan-2-aminium dodecyl sulfate]
1.4336 ± 0.0011

Can you check "CC(C)COC(=O)CC[C@H]([NH3+])C(=O)OCC(C)C.CCCCCCCCCCCCOS(=O)(=O)[O-]" next?
1.4393 ± 0.0011

Next compound: "CC(C)OC(=O)CC[C@H]([NH3+])C(=O)OC(C)C.CCCCCCCCCCCCOS(=O)(=O)[O-]"
1.4392 ± 0.0011
